- STUDY_TARGET: GCS enzyme contained within Golgi preparations isolated from human A375 malignant melanoma skin cells (Homo sapiens, UniProt Q16739)
- Construct: endogenous levels of GCS enzyme contained within Golgi preparations isolated from human A375 malignant melanoma skin cells; endogenous in cells
- Sequence (Q16739 whole entry): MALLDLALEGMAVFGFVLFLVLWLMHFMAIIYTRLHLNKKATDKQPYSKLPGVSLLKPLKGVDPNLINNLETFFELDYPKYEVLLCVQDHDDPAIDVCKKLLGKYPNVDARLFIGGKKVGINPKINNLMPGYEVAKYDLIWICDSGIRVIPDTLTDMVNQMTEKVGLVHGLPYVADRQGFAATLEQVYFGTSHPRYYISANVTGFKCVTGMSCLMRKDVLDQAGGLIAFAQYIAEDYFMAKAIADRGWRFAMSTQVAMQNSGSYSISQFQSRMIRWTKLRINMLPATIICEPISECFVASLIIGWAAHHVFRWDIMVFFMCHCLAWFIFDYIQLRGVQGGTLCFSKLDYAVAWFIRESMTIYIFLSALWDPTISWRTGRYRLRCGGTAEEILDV
- EXPERIMENT: UDP-Glo glucosylceramide synthase biochemical assay
- CONDITION_PARAMETERS: crude Golgi preparation from A375 cells; C6 ceramide and UDP-glucose substrates; 20 h incubation at room temperature; UDP detected by luminescence
pEC50: −log10 of the molar value.
READOUT_TYPE: pEC50

> print(dat)
                                    molecule  quantitative.readout
 1  Cc1cc(-c2ccc(-c3cc(F)cc4c3C(=O)N([C@H](C3CC3)C(C)(C)O)C4)cc2)on1                  9.00
 2  CC(C)(O)C(C1CC1)N1Cc2cccc(CCc3ccnc4c3CCC4)c2C1=O (single isomer, unassigned)                  6.92
 3  Cc1nnc(-c2ccc(-c3cc(F)cc4c3C(=O)N([C@H](C3CC3)C(C)(C)O)C4)c(F)c2)o1                  8.85
 4  Cc1c(CO)noc1-c1ccc(-c2cccc3c2C(=O)N([C@H](C2CC2)C(C)(C)O)C3)cc1                  8.85
 5  Cc1cnc2c(c1CCc1cccc3c1C(=O)N(C(C1CC1)C(C)(C)O)C3)OCO2 (single isomer, unassigned)                  7.85
 6  CCOc1ccccc1C(=O)Nc1cccc2c1C(=O)N(C1CN3CCC1CC3)C2 (racemic)                  6.26
 7  CC(C)[C@H](CO)N1Cc2cccc(NC(=O)c3nc(C(F)(F)F)ccc3Cl)c2C1=O                  7.52
 8  Cc1nnc(-c2ccc(-c3nccc4c3C(=O)N(C(C3CC3)C(C)(C)O)C4)cc2)o1 (single isomer, unassigned)                  6.27
 9  CC(C)(O)C(C1CC1)N1Cc2cccc(NC(=O)c3cccc4c3CCC4)c2C1=O (single isomer, unassigned)                  8.89
10  CC(C)(O)[C@@H](C1CC1)N1Cc2cccc(-c3ccc(-c4ncon4)cc3)c2C1=O                  7.00
11  Cc1nnc(-c2ccc(-c3c(F)cc(O)c4c3C(=O)N([C@H](C3CC3)C(C)(C)O)C4)cc2)o1                  8.00
12  Cn1cc(-c2ccc(-c3ccnc4c3C(=O)N([C@H](C3CC3)C(C)(C)O)C4)cc2)cn1                  7.32
13  Cc1nn(C)c2ccc(-c3ccc(F)c4c3C(=O)N([C@H](C3CC3)C(C)(C)O)C4)cc12                  9.37
14  CC(C)(O)C(C1CC1)N1Cc2cccc(/C=C/c3c(Cl)cnc4c3OCO4)c2C1=O (single isomer, unassigned)                  8.17
15  CCOc1ccccc1C(=O)Nc1cccc2c1C(=O)N(CC1(O)CCC1)C2                  6.19
16  Cc1nn(C)c2ccc(-c3cccc4c3C(=O)N([C@H](C3CC3)C(C)(C)O)C4)cc12                  9.24
17  Cc1cc2c(cnn2C)cc1-c1cccc2c1C(=O)N([C@H](C1CC1)C(C)(C)O)C2                  8.02
18  CC(C)(O)C(C1CC1)N1Cc2cc(F)cc(-c3ccccc3OCC(F)(F)F)c2C1=O (single isomer, unassigned)                  9.39
19  Cn1cc(-c2ccc(-c3nccc4c3C(=O)N([C@H](C3CC3)C(C)(C)O)C4)cc2)cn1                  6.70
20  Cc1ncc(-c2ccc(-c3cccc4c3C(=O)N([C@H](C3CC3)C(C)(C)O)C4)cc2)o1                  6.28
21  O=C(Nc1cccc2c1C(=O)N(C(C1CC1)C1CC1)C2)c1c(Cl)cnc2c1OCO2                  8.24
22  Cn1cc(-c2ccc(-c3cncc4c3C(=O)N([C@H](C3CC3)C(C)(C)O)C4)cc2)cn1                  7.24
23  CC(C)(O)[C@@H](C1CC1)N1Cc2cccc(NC(=O)c3cccn4nccc34)c2C1=O                  9.01
24  CC(C)(O)[C@@H](C1CC1)N1Cc2cccc(-c3cnn(-c4ccncc4)c3)c2C1=O                  6.38
25  Cc1nnc(-c2ccc(-c3ccc(O)c4c3C(=O)N([C@H](C3CC3)C(C)(C)O)C4)cc2)o1                  7.55
26  O=C(Nc1cccc2c1C(=O)N(C(C1CC1)C1CC1)C2)c1ccnc2c1CCC2                  7.82
27  Cc1ccc(F)c(C(=O)Nc2cncc3c2C(=O)N([C@H](C2CC2)C(C)(C)O)C3)c1Cl                  8.68
28  O=C(Nc1cccc2c1C(=O)N(C(C1CC1)C1CC1)C2)c1ccc(F)c2c1CCC2=O                  6.85
29  C[C@@H](N1Cc2cccc(NC(=O)c3nc(C(F)(F)F)ccc3Cl)c2C1=O)C(C)(C)O                  7.42
30  Cn1nc(-c2cccc3c2C(=O)N([C@H](C2CC2)C(C)(C)O)C3)c2ccccc21                  8.68
